Target: T1, human CCR8 (human, UniProt P51685 1-355)
T1 construct: Native CCR8 on human PBMC (CCR8+ CD3+ or CCR8+ CD4+ lymphocytes); also called chemokine (C-C motif) receptor 8
T1 sequence (P51685 whole entry): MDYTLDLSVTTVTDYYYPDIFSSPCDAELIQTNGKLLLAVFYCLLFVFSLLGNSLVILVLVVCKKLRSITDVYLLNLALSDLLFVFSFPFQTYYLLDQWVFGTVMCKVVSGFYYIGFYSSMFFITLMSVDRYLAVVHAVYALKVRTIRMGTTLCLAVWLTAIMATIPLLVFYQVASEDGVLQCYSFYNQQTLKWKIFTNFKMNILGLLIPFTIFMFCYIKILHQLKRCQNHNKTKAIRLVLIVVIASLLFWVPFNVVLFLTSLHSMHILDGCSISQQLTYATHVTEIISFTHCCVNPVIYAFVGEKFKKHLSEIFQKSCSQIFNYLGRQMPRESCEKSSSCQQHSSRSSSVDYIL
Assay: flow blocking, PBMC CCR8+CD4+; competitor PE-AB2
ASSAY_METRIC: % Positive cells
Report field: quantity (unit follows the number).

Worked cases, % Positive cells given:
# BINDER, % Positive cells
measured = [
    ("AB8 (antibody, V domains shown, Hybridoma monoclonal; also called antibody 8; clone 8) VH: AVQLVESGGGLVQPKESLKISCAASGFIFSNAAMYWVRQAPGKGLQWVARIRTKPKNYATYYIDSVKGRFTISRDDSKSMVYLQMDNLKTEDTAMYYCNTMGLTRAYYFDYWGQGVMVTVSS VL: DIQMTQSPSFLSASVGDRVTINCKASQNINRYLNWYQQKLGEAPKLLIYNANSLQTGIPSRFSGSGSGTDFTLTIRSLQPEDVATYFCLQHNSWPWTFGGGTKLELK", "2.27%"),
    ("AB4 (antibody, V domains shown, Hybridoma monoclonal; also called antibody 4; clone 4) VH: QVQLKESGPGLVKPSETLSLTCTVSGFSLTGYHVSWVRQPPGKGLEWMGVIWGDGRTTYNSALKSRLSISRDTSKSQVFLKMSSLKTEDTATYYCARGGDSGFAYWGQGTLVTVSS VL: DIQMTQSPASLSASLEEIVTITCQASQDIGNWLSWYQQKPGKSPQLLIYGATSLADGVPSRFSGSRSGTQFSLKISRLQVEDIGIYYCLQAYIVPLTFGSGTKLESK", "0.02%"),
    ("AB5 (antibody, V domains shown, Hybridoma monoclonal; Same VH/VL entries as AB6; also called antibody 5; clone 5) VH: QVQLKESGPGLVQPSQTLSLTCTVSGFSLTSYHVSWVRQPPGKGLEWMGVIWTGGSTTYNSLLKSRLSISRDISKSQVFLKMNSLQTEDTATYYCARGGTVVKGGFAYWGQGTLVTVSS VL: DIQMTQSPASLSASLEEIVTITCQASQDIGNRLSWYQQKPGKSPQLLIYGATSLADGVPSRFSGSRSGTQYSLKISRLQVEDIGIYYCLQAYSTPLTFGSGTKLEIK", "0.02%"),
    ("AB3 (antibody, V domains shown, Hybridoma monoclonal; also called antibody 3; clone 3) VH: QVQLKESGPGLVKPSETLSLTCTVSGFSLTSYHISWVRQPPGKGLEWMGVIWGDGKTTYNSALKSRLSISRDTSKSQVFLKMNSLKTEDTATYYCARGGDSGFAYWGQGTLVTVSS VL: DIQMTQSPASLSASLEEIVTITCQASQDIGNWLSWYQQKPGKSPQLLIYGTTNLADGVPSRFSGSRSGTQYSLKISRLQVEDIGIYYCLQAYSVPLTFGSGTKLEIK", "0.02%"),
]

Alright, here's another binder for you.
Query: Output % Positive cells of AB1 (antibody, V domains shown, Hybridoma monoclonal (mouse or rat); Same VH/VL entries as AB2; also called antibody 1; clone 1) VH: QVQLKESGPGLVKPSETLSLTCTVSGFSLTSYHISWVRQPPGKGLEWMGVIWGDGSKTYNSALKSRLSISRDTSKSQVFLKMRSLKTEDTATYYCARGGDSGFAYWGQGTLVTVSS VL: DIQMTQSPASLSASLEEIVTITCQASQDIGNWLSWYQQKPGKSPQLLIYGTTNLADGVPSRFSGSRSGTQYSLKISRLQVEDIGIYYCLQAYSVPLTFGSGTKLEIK
Result: 0.03%
